# tgt: human Tissue Factor (TF) (human, UniProt P13726 33-295)
# test.summary: cell-based or functional assay
measurement.kind: % GM-CSF at 2.56 nM antibody (%)
# output: bare number, implied unit %

binder	unit.string	% GM-CSF at 2.56 nM antibody
39A (antibody, human IgG1, V domains shown, Human IgG1; also called antibody designated 39A) VH: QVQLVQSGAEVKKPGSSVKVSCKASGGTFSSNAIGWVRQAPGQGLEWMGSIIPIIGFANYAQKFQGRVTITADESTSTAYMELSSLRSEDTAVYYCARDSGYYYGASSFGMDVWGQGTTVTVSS VL: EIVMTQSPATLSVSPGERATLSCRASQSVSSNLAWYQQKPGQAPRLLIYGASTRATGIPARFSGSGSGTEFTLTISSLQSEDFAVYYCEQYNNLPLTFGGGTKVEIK	%	42

Q) # get_value(readout='% GM-CSF at 2.56 nM antibody', item= 25G1 (antibody, human IgG1, V domains shown) VH: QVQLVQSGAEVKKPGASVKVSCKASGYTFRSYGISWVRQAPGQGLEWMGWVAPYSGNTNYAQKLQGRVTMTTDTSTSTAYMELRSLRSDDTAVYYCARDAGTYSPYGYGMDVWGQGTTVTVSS VL: DIQMTQSPSTLSASVGDRVTITCRASHSIDSWLAWYQQKPGKAPKLLIYKASYLESGVPSRFSGSGSGTEFTLTISSLQPDDFATYYCQLFQSLPPFTFGGGTKVEIK )
A) 48
